Biological target: EGFR (ErbB1) (Homo sapiens (Human), UniProt P00533)
Sequence (P00533 25-1210): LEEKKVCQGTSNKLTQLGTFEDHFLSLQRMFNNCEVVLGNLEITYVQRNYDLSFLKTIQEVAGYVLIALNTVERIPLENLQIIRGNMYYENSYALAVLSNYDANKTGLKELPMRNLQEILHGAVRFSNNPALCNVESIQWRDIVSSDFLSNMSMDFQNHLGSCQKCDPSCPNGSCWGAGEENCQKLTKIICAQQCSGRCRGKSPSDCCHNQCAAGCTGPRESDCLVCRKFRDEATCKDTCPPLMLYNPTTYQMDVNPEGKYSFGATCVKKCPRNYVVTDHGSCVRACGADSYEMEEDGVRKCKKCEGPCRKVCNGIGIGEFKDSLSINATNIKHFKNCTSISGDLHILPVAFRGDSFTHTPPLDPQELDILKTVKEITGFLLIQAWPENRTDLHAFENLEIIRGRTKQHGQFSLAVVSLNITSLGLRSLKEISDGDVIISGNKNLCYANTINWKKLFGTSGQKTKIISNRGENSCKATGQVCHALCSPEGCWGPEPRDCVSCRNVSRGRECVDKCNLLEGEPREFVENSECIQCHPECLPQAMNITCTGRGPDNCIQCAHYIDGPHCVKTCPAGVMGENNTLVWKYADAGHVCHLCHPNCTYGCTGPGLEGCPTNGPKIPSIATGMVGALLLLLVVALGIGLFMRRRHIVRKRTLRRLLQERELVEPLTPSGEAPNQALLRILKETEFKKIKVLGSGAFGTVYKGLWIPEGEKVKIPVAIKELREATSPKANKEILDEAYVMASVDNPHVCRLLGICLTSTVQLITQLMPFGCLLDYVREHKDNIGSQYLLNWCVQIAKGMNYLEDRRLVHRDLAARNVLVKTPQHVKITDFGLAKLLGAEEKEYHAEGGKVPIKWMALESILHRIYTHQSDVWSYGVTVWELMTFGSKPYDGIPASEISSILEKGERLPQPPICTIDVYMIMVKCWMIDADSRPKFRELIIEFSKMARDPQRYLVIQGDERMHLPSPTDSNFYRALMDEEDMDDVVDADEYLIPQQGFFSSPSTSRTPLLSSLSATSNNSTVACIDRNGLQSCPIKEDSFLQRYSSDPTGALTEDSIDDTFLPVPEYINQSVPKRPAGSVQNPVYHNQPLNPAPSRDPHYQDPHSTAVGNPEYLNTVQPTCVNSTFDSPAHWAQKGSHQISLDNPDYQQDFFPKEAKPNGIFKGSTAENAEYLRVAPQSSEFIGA
Experiment: Z'-LYTE kinase inhibition assay, EGFR
Assay type: biochemical
Conditions: read-out: % inhibition against EGFR (Compound at 0.041 μM)
Let's look at some compounds and their measured inhibition at 0.041 µM.

Guide cases for inhibition at 0.041 µM, answers given:
compound	inhibition at 0.041 µM
C=CC(=O)Nc1cccc(-c2cccc3cnc(Nc4cnc(N5CCN(C)CC5)nc4)nc23)c1	> 50%
C=CC(=O)Nc1cccc(-c2cccc3cnc(Nc4ccc(NC5CCN(C)CC5)cc4F)nc23)c1	> 50%
C=CC(=O)Nc1cccc(-c2cccc3cnc(Nc4ccc(N5CCN(C)CC5)cc4)nc23)c1C#N	> 50%

// inhibition at 0.041 µM lookup, compound = `C=CC(=O)Nc1cccc(-c2cccc3cnc(Nc4ccc(N5CCNC5=O)cc4)nc23)c1` , result: < 50%

---

Target: BTK (Homo sapiens (Human))
Sequence (Q06187 whole entry): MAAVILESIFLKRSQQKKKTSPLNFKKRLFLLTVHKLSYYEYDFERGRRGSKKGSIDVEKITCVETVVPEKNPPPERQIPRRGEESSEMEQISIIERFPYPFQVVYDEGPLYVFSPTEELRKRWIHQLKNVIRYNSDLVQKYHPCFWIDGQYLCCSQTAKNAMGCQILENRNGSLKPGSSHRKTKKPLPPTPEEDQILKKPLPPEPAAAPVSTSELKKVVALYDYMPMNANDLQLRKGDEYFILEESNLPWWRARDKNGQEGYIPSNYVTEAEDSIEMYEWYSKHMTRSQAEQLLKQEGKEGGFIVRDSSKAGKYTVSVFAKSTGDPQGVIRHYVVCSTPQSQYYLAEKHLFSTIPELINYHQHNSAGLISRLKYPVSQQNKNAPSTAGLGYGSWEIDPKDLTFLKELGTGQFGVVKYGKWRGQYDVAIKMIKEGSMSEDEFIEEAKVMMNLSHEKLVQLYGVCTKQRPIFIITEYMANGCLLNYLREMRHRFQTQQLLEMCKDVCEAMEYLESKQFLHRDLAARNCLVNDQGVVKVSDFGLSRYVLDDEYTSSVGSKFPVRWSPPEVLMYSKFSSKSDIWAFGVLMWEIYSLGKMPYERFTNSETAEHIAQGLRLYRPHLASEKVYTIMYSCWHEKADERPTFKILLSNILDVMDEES
Experiment: Z'-LYTE kinase inhibition assay, BTK
Format: biochemical
Conditions: compound at 0.041 μM; read-out: % inhibition against BTK
outcomeMeasure: inhibition at 0.041 µM

// inhibition at 0.041 µM lookup, compound = C=CC(=O)Nc1cccc(-c2cccc3cnc(Nc4ccc(N5CCN(C(C)=O)CC5)cc4)nc23)c1 [Example C032] , result: > 50%

// inhibition at 0.041 µM lookup, compound = Fc1ccc(OCCN2CCOCC2)cc1-c1cccc2cnc(Nc3ccc(N4CCOCC4)cc3)nc12 [Example C023] , result: < 50%

// inhibition at 0.041 µM lookup, compound = CC(=O)Nc1cccc(-c2cccc3cnc(Nc4ccc(N5CCN(C)CC5)cc4)nc23)c1 [Example C022] , result: > 50%

// inhibition at 0.041 µM lookup, compound = C=CC(=O)Nc1cccc(-c2cccc3cnc(Nc4ccc(N5CCN(C)CC5)cc4)nc23)c1Cl [Example C054] , result: > 50%

---

Biological target: EGFR (ErbB1) L858R (Homo sapiens (Human), UniProt P00533, L858R)
Sequence (P00533 25-1210 L858R): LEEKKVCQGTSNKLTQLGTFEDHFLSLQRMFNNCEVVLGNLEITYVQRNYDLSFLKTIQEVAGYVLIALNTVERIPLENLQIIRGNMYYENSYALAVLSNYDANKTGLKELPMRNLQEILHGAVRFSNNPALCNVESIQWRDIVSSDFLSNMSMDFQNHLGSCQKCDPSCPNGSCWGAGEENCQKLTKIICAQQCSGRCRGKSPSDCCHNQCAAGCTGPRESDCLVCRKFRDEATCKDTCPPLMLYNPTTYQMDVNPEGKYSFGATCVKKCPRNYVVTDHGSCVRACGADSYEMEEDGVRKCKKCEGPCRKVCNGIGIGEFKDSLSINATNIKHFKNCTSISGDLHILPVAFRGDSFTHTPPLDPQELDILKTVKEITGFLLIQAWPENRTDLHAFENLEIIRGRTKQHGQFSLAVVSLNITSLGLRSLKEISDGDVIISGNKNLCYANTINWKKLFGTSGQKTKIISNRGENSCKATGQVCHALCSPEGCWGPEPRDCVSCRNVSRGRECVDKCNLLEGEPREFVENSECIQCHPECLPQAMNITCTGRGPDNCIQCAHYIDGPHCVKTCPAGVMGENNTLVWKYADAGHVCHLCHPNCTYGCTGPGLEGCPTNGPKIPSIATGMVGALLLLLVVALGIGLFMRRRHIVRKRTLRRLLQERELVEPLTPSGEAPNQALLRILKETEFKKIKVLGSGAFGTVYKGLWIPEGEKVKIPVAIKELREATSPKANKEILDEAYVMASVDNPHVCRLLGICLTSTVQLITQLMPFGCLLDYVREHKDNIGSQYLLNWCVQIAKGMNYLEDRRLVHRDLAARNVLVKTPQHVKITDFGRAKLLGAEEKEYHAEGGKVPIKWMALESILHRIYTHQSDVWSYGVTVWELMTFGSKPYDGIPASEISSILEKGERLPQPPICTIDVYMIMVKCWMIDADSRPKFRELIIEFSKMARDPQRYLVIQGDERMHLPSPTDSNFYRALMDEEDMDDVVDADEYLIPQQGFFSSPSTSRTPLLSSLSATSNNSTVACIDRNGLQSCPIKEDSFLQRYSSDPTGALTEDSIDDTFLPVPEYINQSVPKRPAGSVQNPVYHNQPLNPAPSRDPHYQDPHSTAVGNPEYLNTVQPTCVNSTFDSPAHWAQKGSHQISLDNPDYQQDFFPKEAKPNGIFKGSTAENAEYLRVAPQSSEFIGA
Experiment: Z'-LYTE kinase inhibition assay, EGFR L858R
Assay type: biochemical
Settings: read-out: % inhibition against EGFR L858R (Compound at 1 μM)
outcomeMeasure: inhibition at 1 µM

Guide cases for inhibition at 1 µM, answers given:
entrySmiles	inhibition at 1 µM
Clc1cccc(-c2cccc3cnc(Nc4ccc(N5CCOCC5)cc4)nc23)c1	< 50%
Clc1ccccc1-c1cccc2cnc(Nc3ccc(N4CCOCC4)cc3)nc12	< 50%

Below: the item to evaluate.
// inhibition at 1 µM lookup, molecule = `c1ccc(-c2cccc3cnc(Nc4ccc(N5CCOCC5)cc4)nc23)cc1` , result: < 50%

---

Target: EGFR (ErbB1) T790M L858R (Homo sapiens (Human), UniProt P00533, L858R/T790M)
Sequence (P00533 25-1210 T790M/L858R): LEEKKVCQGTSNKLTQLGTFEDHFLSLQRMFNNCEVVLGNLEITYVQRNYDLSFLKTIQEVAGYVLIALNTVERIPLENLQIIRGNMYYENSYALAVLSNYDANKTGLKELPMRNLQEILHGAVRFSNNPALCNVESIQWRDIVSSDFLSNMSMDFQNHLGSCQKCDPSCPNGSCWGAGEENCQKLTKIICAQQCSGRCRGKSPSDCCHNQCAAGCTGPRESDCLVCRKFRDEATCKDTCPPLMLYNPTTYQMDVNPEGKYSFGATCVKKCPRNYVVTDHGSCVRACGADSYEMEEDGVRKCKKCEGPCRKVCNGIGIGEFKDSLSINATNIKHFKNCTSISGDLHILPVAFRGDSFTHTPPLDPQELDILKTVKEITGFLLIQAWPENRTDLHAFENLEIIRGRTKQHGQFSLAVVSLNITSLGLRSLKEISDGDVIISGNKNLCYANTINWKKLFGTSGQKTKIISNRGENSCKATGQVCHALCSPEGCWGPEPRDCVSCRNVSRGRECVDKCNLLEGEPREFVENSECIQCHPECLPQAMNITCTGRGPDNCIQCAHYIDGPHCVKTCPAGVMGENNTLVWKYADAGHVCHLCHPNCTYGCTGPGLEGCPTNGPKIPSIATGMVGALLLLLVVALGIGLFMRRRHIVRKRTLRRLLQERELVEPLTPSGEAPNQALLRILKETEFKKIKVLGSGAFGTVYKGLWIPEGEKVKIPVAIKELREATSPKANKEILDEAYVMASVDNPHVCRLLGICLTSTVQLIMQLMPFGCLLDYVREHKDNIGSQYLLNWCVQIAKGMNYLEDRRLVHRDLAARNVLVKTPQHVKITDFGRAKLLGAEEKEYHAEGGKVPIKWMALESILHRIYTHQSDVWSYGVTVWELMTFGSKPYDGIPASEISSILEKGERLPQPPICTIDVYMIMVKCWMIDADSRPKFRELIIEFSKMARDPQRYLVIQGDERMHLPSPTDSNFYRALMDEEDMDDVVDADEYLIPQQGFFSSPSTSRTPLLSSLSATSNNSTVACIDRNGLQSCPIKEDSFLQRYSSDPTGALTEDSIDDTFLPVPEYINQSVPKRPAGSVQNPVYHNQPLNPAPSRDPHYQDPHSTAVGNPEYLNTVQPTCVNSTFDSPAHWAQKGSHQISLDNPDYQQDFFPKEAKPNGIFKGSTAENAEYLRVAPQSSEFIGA
Test: Z'-LYTE kinase inhibition assay, EGFR L858R/T790M
Type: biochemical
Conditions: read-out: % inhibition against EGFR L858R/T790M (Compound at 0.0137 μM)
Let's look at some molecules and their measured inhibition at 0.0137 µM.

molecule	recordedValue
C=CC(=O)Nc1cccc(-c2cccc3cnc(Nc4ccc(OC5CCN(C)CC5)cc4)nc23)c1	> 50%
C=CC(=O)Nc1cccc(-c2cccc3cnc(Nc4ccc(N5CCN(CC(F)F)CC5)cc4)nc23)c1	< 50%
C=CC(=O)Nc1cccc(-c2cccc3cnc(Nc4ccc(N5CCN(C(=O)OC)CC5)cc4)nc23)c1	< 50%
C=CC(=O)Nc1cccc(-c2cccc3cnc(Nc4c(F)cc(N5CCN(C)CC5)cc4F)nc23)c1	< 50%
C=CC(=O)Nc1cccc(-c2cccc3cnc(Nc4ccc(N5CCN(C)CC5)cc4)nc23)c1C#N	> 50%
C=CC(=O)Nc1cccc(-c2cccc3cnc(Nc4ccc(NCCO)cc4)nc23)c1	< 50%

// inhibition at 0.0137 µM lookup, molecule = `C=CC(=O)Nc1cncc(-c2cccc3cnc(Nc4ccc(N5CCN(CCF)CC5)cc4)nc23)c1` , result: > 50%

// inhibition at 0.0137 µM lookup, molecule = `C=CC(=O)Nc1cccc(-c2cccc3cnc(Nc4ccc(-n5cccn5)cc4)nc23)c1` , result: < 50%

// inhibition at 0.0137 µM lookup, molecule = C=CC(=O)Nc1cccc(-c2cccc3cnc(Nc4ccc(N5CCN(C)C(C(=O)OC)C5)cc4)nc23)c1 (stereo not drawn) , result: < 50%

// inhibition at 0.0137 µM lookup, molecule = `C=CC(=O)Nc1cccc(-c2cccc3cnc(Nc4ccc(N5CCN(CC(C)(C)O)CC5)cc4)nc23)c1` , result: > 50%

// inhibition at 0.0137 µM lookup, molecule = `CC(=O)N1CCN(c2ccc(Nc3ncc4cccc(-c5cccc(NC(=O)/C=C/CN(C)C)c5Cl)c4n3)cc2)CC1` , result: > 50%

---

Let's look at some compounds and their measured inhibition at 0.0137 µM.
Target: EGFR (ErbB1) T790M L858R (Homo sapiens (Human), UniProt P00533, L858R/T790M)
Assay: Z'-LYTE kinase inhibition assay, EGFR L858R/T790M
Format: biochemical
Details: read-out: % inhibition against EGFR L858R/T790M (Compound at 0.0137 μM)

entrySmiles	inhibition at 0.0137 µM
C=CC(=O)Nc1cccc(-c2cccc3cnc(Nc4ccc(N[C@@H]5CCN(C)C5)cc4)nc23)c1	> 50%
C=CC(=O)Nc1cccc(-c2cccc3cnc(Nc4ccc(O[C@H]5CCN(C(C)=O)C5)cc4)nc23)c1	< 50%
C=CC(=O)Nc1cccc(-c2cccc3cnc(Nc4ccc(N5CCOCC5=O)cc4)nc23)c1	< 50%
C=CC(=O)Nc1cccc(-c2cccc3cnc(Nc4ccc(N5CCN(C)CC5)c(OC)c4)nc23)c1	> 50%
C=CC(=O)Nc1cccc(-c2cccc3cnc(Nc4ccc(OC5CCN(CCO)CC5)cc4)nc23)c1	> 50%
C=CC(=O)Nc1cccc(-c2cccc3cnc(Nc4ccc(N5CCN(CC(N)=O)CC5)cc4F)nc23)c1	< 50%

Below: the item to evaluate.
// inhibition at 0.0137 µM lookup, compound = `C=CC(=O)Nc1ccc(F)c(-c2cccc3cnc(Nc4ccc(N5CCN(C)CC5)cc4)nc23)c1` , result: > 50%

---

Biological target: EGFR (ErbB1) T790M L858R (Homo sapiens (Human), UniProt P00533, L858R/T790M)
Assay: Z'-LYTE kinase inhibition assay, EGFR L858R/T790M
Type: biochemical
Conditions: read-out: % inhibition against EGFR L858R/T790M (Compound at 0.0137 μM)
outcomeMeasure: inhibition at 0.0137 µM

Guide cases for inhibition at 0.0137 µM, answers given:
compound	outcomeMeasure	recordedValue
C=CC(=O)Nc1cccc(-c2cccc3cnc(Nc4ccc(NC5CCN(CCF)CC5)cc4)nc23)c1	inhibition at 0.0137 µM	> 50%
C=CC(=O)Nc1cccc(-c2cccc3cnc(Nc4ccc(N[C@H]5CCN(C)C5)cc4)nc23)c1	inhibition at 0.0137 µM	> 50%
C=CC(=O)Nc1cccc(-c2cccc3cnc(Nc4ccc(N5CCNC5=O)cc4)nc23)c1	inhibition at 0.0137 µM	< 50%
C=CC(=O)Nc1cccc(-c2cccc3cnc(Nc4cnc(N5CCN(C)CC5)nc4)nc23)c1	inhibition at 0.0137 µM	> 50%
C=CC(=O)Nc1cccc(-c2cccc3cnc(Nc4ccc(N5CCN(CC(N)=O)CC5)cc4)nc23)c1	inhibition at 0.0137 µM	< 50%
C=CC(=O)Nc1cccc(-c2cccc3cnc(Nc4ccc(N5CCN(C)CC5)cc4F)nc23)c1	inhibition at 0.0137 µM	> 50%
C=CC(=O)Nc1cccc(-c2cccc3cnc(Nc4ccc(NC5CCN(CCO)CC5)cc4)nc23)c1	inhibition at 0.0137 µM	> 50%
C=CC(=O)N1CCN(c2cccc3cnc(Nc4ccc(N5CCN(C)CC5)cc4)nc23)CC1	inhibition at 0.0137 µM	< 50%

// inhibition at 0.0137 µM lookup, compound = `C=CC(=O)Nc1cccc(-c2cccc3cnc(Nc4ccc(O[C@H]5CCOC5)cc4)nc23)c1` , result: < 50%

// inhibition at 0.0137 µM lookup, compound = C=CC(=O)Nc1cccc(-c2cccc3cnc(Nc4ccc(N5CCC(O)C5)cc4)nc23)c1 (stereo not shown) , result: < 50%

// inhibition at 0.0137 µM lookup, compound = `C=CC(=O)Nc1cccc(-c2cccc3cnc(Nc4ccc(NC5CN(CCF)C5)cc4)nc23)c1` , result: > 50%

// inhibition at 0.0137 µM lookup, compound = `C=CC(=O)Nc1cccc(-c2cccc3cnc(Nc4ccc(-c5cn[nH]c5)cc4)nc23)c1` , result: < 50%

// inhibition at 0.0137 µM lookup, compound = `C=CC(=O)Nc1cc(-c2cccc3cnc(Nc4ccc(N5CCN(C)CC5)cc4)nc23)ccn1` , result: > 50%

// inhibition at 0.0137 µM lookup, compound = `C=CC(=O)Nc1cccc(-c2cccc3cnc(Nc4ccc(O[C@@H]5CCOC5)cc4)nc23)c1` , result: < 50%

// inhibition at 0.0137 µM lookup, compound = C=CC(=O)Nc1cccc(-c2cccc3cnc(Nc4ccc(N5CCN(C)C(CO)C5)cc4)nc23)c1 (stereo not shown) , result: > 50%

// inhibition at 0.0137 µM lookup, compound = `C=CC(=O)Nc1cccc(-c2cccc3cnc(Nc4ccc(-n5ccnc5)cc4)nc23)c1` , result: < 50%
